biological target: estrogen receptor (ERα) in MCF-7 human breast cancer cell line (Homo sapiens (Human)); experiment: Western blotting assay, MCF-7 cells; assay type: cell-based; conditions: 100 nM compound, 48 h; normalised to vehicle (0%) and 100 nM fulvestrant (100%)
Sequence (P03372 whole entry): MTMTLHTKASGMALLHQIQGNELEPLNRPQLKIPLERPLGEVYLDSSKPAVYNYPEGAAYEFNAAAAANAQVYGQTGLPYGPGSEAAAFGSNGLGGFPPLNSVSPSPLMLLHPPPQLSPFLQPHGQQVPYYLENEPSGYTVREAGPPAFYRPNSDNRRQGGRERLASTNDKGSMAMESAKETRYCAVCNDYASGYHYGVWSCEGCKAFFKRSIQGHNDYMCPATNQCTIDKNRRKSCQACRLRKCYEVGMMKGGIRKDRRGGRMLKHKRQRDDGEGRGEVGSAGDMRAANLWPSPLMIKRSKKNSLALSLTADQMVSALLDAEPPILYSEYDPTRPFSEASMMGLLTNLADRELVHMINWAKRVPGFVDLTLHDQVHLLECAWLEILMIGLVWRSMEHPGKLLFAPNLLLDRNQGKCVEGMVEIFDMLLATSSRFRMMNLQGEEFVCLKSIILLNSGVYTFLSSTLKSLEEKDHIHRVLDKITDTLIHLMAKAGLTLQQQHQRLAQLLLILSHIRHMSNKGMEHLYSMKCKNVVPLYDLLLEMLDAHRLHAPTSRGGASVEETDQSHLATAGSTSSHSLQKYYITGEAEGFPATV
MCF7 Western % ER deg vs Fv listing for selected molecules.

[
  {
    "smiles.code": "COc1cc(OCCN2CC(CF)C2)ccc1[C@@H]1c2ccc3[nH]ncc3c2C[C@@H](C)N1CC(C)(C)F",
    "unit.info": "%",
    "MCF7 Western % ER deg vs Fv": 69
  },
  {
    "smiles.code": "C[C@@H]1Cc2c(ccc3[nH]ncc23)[C@@H](c2ccc(OCCN3CC(CF)C3)cn2)N1CC(F)F",
    "unit.info": "%",
    "MCF7 Western % ER deg vs Fv": 97
  },
  {
    "smiles.code": "C[C@@H]1Cc2c(ccc3[nH]ncc23)[C@@H](c2ccc(OCCN3CC(CF)C3)cn2)N1CC1(F)CC1",
    "unit.info": "%",
    "MCF7 Western % ER deg vs Fv": 80
  },
  {
    "smiles.code": "COc1cc(OCCN2CC(CF)C2)ccc1[C@@H]1c2ccc3[nH]ncc3c2C[C@@H](C)N1CC(C)C",
    "unit.info": "%",
    "MCF7 Western % ER deg vs Fv": 97
  },
  {
    "smiles.code": "COc1cc(OCCN2CC(CF)C2)ccc1[C@@H]1c2ccc3[nH]ncc3c2C[C@@H](C)N1CC1(F)CC1",
    "unit.info": "%",
    "MCF7 Western % ER deg vs Fv": 77
  },
  {
    "smiles.code": "C[C@@H]1Cc2c(ccc3[nH]ncc23)[C@@H](c2ccc(OCCN3CC(CF)C3)cn2)N1CC(F)(F)F",
    "unit.info": "%",
    "MCF7 Western % ER deg vs Fv": 98
  },
  {
    "smiles.code": "COc1cc(OCCN2CC(CF)C2)ccc1[C@@H]1c2ccc3[nH]ncc3c2C[C@@H](C)N1CC(F)F",
    "unit.info": "%",
    "MCF7 Western % ER deg vs Fv": 100
  },
  {
    "smiles.code": "COCC(F)(F)CN1[C@H](c2ccc(OCCN3CC(CF)C3)cn2)c2ccc3[nH]ncc3c2C[C@H]1C",
    "unit.info": "%",
    "MCF7 Western % ER deg vs Fv": 87
  }
]

---

assay: Human plasma protein binding, equilibrium dialysis (RED); type: in vitro ADME; conditions: dialysis for 18 hours
// false strictly below 20 % free in Human plasma protein binding (% free); true otherwise

[
  {
    "smiles.code": "COc1cc(OCCN2CC(CF)C2)ccc1[C@@H]1c2ccc3[nH]ncc3c2C[C@@H](C)N1CC(C)(C)F",
    "class.label": "false"
  },
  {
    "smiles.code": "COc1cc(OCCN2CC(CF)C2)ccc1[C@@H]1c2ccc3[nH]ncc3c2C[C@@H](C)N1CC1(F)CC1",
    "class.label": "true"
  },
  {
    "smiles.code": "C[C@@H]1Cc2c(ccc3[nH]ncc23)[C@@H](c2ccc(OCCN3CC(CF)C3)cn2)N1CC(F)F",
    "class.label": "true"
  },
  {
    "smiles.code": "C[C@@H]1Cc2c(ccc3[nH]ncc23)[C@@H](c2ccc(OCCN3CC(CF)C3)cn2)N1CC(F)(F)F",
    "class.label": "true"
  }
]

---

experiment: Human hepatocyte assay (metabolic stability); assay type: in vitro ADME; conditions: human hepatocytes, 37° C., 1.0×10^6 viable cells/mL; read-out: Clint (in vitro intrinsic clearance)
Each record is given satisfied if its reported hepatocyte CLint at 1 µM is strictly below 9 µL/min/1e6 cells. Records at or above 9 µL/min/1e6 cells are given not satisfied.

[
  {
    "smiles.code": "CC(C)CN1[C@H](c2ccc(OCCN3CC(CF)C3)cc2)c2ccc3[nH]ncc3c2C[C@H]1C",
    "class.label": "satisfied"
  },
  {
    "smiles.code": "C[C@@H]1Cc2c(ccc3[nH]ncc23)[C@@H](c2ccc(OCCN3CC(CF)C3)cc2)N1CC1(F)CC1",
    "class.label": "not satisfied"
  },
  {
    "smiles.code": "C[C@@H]1Cc2c(ccc3[nH]ncc23)[C@@](C)(c2c(F)cc(OCCN3CC(CF)C3)cc2F)N1CC(C)(C)F",
    "class.label": "satisfied"
  },
  {
    "smiles.code": "C[C@@H]1Cc2c(ccc3[nH]ncc23)[C@@H](c2ccc(OCCN3CC(CF)C3)cn2)N1CC1(F)CC1",
    "class.label": "satisfied"
  },
  {
    "smiles.code": "C[C@@H]1Cc2c(ccc3[nH]ncc23)[C@@](C)(c2ccc(OCCN3CC(CF)C3)cc2)N1CC1(F)COC1",
    "class.label": "not satisfied"
  },
  {
    "smiles.code": "C[C@@H]1Cc2c(ccc3[nH]ncc23)[C@@H](c2ccc(OCCN3CC(CF)C3)cn2)N1CC(F)(F)F",
    "class.label": "satisfied"
  },
  {
    "smiles.code": "COc1cc(OCCN2CC(CF)C2)ccc1[C@@H]1c2ccc3[nH]ncc3c2C[C@@H](C)N1CC(C)C",
    "class.label": "satisfied"
  },
  {
    "smiles.code": "C[C@@H]1Cc2c(ccc3[nH]ncc23)[C@@](C)(c2ccc(OCCN3CC(CF)C3)cc2)N1CC1(F)CC1",
    "class.label": "not satisfied"
  },
  {
    "smiles.code": "CC(C)CN1[C@H](c2ccc(OCCN3CC(CF)C3)cn2)c2ccc3[nH]ncc3c2C[C@H]1C",
    "class.label": "satisfied"
  },
  {
    "smiles.code": "C[C@@H]1Cc2c(ccc3[nH]ncc23)[C@@H](c2c(F)cc(NCCN3CC(CF)C3)cc2F)N1CC(C)(C)F",
    "class.label": "satisfied"
  },
  {
    "smiles.code": "CC(C)(F)CN1[C@H](c2c(F)cc(OCCN3CC(CF)C3)cc2F)c2ccc3[nH]ncc3c2C[C@H]1C(F)F",
    "class.label": "not satisfied"
  },
  {
    "smiles.code": "C[C@@H]1Cc2c(ccc3[nH]ncc23)[C@@H](c2ccc(OCCN3CC(CF)C3)cc2)N1CC1(F)COC1",
    "class.label": "not satisfied"
  },
  {
    "smiles.code": "CC(C)(F)CN1[C@H](C(F)F)Cc2c(ccc3[nH]ncc23)[C@@]1(C)c1c(F)cc(OCCN2CC(CF)C2)cc1F",
    "class.label": "not satisfied"
  },
  {
    "smiles.code": "COc1cc(OCCN2CC(CF)C2)ccc1[C@@H]1c2ccc3[nH]ncc3c2C[C@@H](C)N1CC(C)(C)F",
    "class.label": "not satisfied"
  }
]

---

The following compounds are listed with their measured Human plasma protein binding (% free) values.
Assay: Human plasma protein binding, equilibrium dialysis (RED)
Format: in vitro ADME
Conditions: dialysis for 18 hours
Method: Human Plasma Protein Binding The automated equilibrium dialysis assay in human plasma uses the RED (Rapid Equilibrium Dialysis) Device and sample handling. The assay generally runs over two to three days including delivery of results. After dialysis for 18 hours, plasma and buffer samples are prepared for analysis by liquid chromatography and mass spectrometry. Samples are generally tested in singlicates and quantified by LC/MSMS by using a 7-point calibration curve in plasma. […]

[
  {
    "smiles.code": "COc1cc(OCCN2CC(CF)C2)ccc1[C@@H]1c2ccc3[nH]ncc3c2C[C@@H](C)N1CC(C)C",
    "Human plasma protein binding (% free)": 52
  },
  {
    "smiles.code": "COc1cc(OCCN2CC(CF)C2)ccc1[C@@H]1c2ccc3[nH]ncc3c2C[C@@H](C)N1CC(F)F",
    "Human plasma protein binding (% free)": 11
  },
  {
    "smiles.code": "COCC(F)(F)CN1[C@H](c2ccc(OCCN3CC(CF)C3)cn2)c2ccc3[nH]ncc3c2C[C@H]1C",
    "Human plasma protein binding (% free)": 27
  },
  {
    "smiles.code": "C[C@@H]1Cc2c(ccc3[nH]ncc23)[C@@H](c2ccc(OCCN3CC(CF)C3)cn2)N1CC1(F)CC1",
    "Human plasma protein binding (% free)": 34
  }
]

---

# maps each entry to its DC50
molecular target: ERα receptor in MCF-7 human ductal carcinoma breast cell line (Homo sapiens (Human), UniProt P03372); test: MCF-7 ER down regulation assay (immuno-fluorescence); assay type: cell-based; settings: MCF-7 cells, 18-22 hours incubation; read-out: ER down regulation IC50 value
Sequence (P03372 whole entry): as above
readout.kind: DC50 (nM)

[
  {
    "compound": "COc1cc(OCCN2CC(CF)C2)ccc1[C@@H]1c2ccc3[nH]ncc3c2C[C@@H](C)N1CC1(F)COC1 [Example 13]",
    "val": 0.23
  },
  {
    "compound": "COc1cc(OCCN2CC(CF)C2)ccc1[C@@H]1c2ccc3[nH]ncc3c2C[C@@H](C)N1CC(F)F [Example 7]",
    "val": 0.085
  },
  {
    "compound": "CC(C)CN1[C@H](c2c(F)cc(OCCN3CC(CF)C3)cc2F)c2ccc3[nH]nc(F)c3c2C[C@H]1C [Example 44]",
    "val": 0.42
  },
  {
    "compound": "COc1cc(OCCN2CC(CF)C2)cc(F)c1[C@@H]1c2ccc3[nH]ncc3c2C[C@@H](C)N1CC(F)(F)CF [Example 27]",
    "val": 0.059
  },
  {
    "compound": "COc1cc(OCCN2CC(CF)C2)ncc1[C@@H]1c2ccc3[nH]ncc3c2C[C@@H](C)N1CC1(F)CC1 [Example 42]",
    "val": 0.59
  },
  {
    "compound": "C[C@@H]1Cc2c(ccc3[nH]ncc23)[C@@H](c2ncc(OCCN3CC(CF)C3)cc2F)N1CC(F)F [Example 48]",
    "val": 1.9
  },
  {
    "compound": "C[C@@H]1Cc2c(ccc3[nH]ncc23)[C@@H](c2ccc(OCCN3CC(CF)C3)cc2)N1CC1(F)COC1 [Example 31]",
    "val": 0.2
  },
  {
    "compound": "CC(C)CN1C(c2c(F)cc(OCCN3CC(CF)C3)cc2F)c2ccc3[nH]ncc3c2CC1(C)C (stereo not shown) [Example 36]",
    "val": 0.25
  },
  {
    "compound": "COc1cc(OCCN2CC(CF)C2)ccc1[C@@H]1c2ccc3[nH]ncc3c2C[C@@H](C)N1CC1(F)CC1 [Example 6]",
    "val": 0.13
  },
  {
    "compound": "C[C@@H]1Cc2c(ccc3[nH]ncc23)[C@@H](c2ncc(OCCN3CC(CF)C3)cc2F)N1CC(F)(F)F [Example 50]",
    "val": 0.5
  },
  {
    "compound": "COCC(F)(F)CN1[C@H](c2ccc(OCCN3CC(CF)C3)cc2OC)c2ccc3[nH]ncc3c2C[C@H]1C [Example 15]",
    "val": 0.091
  },
  {
    "compound": "CC(C)(F)CN1[C@H](c2c(F)cc(OCCN3CC(CF)C3)cc2F)c2ccc3[nH]ncc3c2C[C@H]1C(F)F [Example 3]",
    "val": 0.16
  },
  {
    "compound": "CC(C)CN1[C@H](c2ccc(OCCN3CC(CF)C3)cc2)c2ccc3[nH]ncc3c2C[C@H]1C [Example 28]",
    "val": 0.14
  }
]
